# maps each entry to its pEC50
Target: TLR7 (Homo sapiens)
Construct: human HEK-Blue cells co-expressing a TLR7 or TLR8 gene
Sequence (Q9NYK1 27-1049): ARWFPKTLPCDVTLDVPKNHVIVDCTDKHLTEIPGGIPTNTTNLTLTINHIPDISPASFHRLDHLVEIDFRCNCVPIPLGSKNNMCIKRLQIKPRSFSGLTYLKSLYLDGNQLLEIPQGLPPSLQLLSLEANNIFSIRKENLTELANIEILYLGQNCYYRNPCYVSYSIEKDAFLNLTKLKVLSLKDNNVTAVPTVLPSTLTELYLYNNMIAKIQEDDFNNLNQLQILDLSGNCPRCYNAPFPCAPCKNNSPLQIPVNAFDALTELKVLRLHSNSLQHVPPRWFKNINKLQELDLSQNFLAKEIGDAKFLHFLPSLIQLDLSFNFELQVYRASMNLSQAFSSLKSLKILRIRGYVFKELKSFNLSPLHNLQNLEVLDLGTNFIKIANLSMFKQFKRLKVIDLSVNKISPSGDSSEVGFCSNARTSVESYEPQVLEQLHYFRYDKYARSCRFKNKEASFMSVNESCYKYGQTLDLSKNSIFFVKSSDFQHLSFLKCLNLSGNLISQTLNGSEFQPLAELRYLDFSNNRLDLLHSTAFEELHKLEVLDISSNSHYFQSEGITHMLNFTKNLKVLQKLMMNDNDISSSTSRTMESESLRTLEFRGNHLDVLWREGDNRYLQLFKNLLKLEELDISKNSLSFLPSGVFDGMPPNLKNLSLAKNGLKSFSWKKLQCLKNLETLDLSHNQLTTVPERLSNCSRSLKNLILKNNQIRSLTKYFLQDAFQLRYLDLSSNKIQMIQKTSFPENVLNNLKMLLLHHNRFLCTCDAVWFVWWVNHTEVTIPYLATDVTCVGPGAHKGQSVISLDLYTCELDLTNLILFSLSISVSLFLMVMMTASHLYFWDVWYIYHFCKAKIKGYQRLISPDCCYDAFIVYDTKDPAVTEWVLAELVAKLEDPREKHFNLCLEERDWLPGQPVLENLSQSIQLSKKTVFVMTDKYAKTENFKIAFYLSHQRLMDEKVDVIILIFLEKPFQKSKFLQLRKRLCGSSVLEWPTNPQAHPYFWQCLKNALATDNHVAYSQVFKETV
Assay: In vitro human TLR7 binding reporter assay (HEK-Blue, NF-kB/AP1-inducible SEAP)
Type: cell-based
Conditions: activity range class, read-out: TLR7 Agonist EC50
pEC50: −log10 of the molar value.

>>> reportedresult("Nc1nc2cc(-c3cc[nH]n3)ccc2c2cn(Cc3cccnc3)nc12")
"< 4.00"
>>> reportedresult("Nc1nc2cc(-c3cc[nH]n3)ccc2c2cn(CCNC(=O)c3ccncn3)nc12")
"< 4.00"
>>> reportedresult("Nc1nc2cc(-c3cc[nH]n3)ccc2c2nn(CCN3Cc4ccc(F)cc4C3=O)cc12")
"< 4.00"
>>> reportedresult("Nc1nc2cc(-c3cc[nH]n3)ccc2c2nn(C3COCC3O)cc12 (single isomer, unassigned) [Example 324]")
"< 4.00"
>>> reportedresult("N#CC1(C(=O)NCCn2cc3c(n2)c(N)nc2cc(-c4cc[nH]n4)ccc23)CC1")
"< 4.00"
>>> reportedresult("Nc1nc2cc(-c3cc[nH]n3)ccc2c2cn(CCNC(=O)c3ccccn3)nc12")
"< 4.00"

Please report the measured pEC50 for CC(=O)NCCn1cc2c(N)nc3cc(-c4cc[nH]n4)ccc3c2n1
< 4.00

Give me measured pEC50, please, for this compound: CC(=O)NCCn1cc2c(n1)c(N)nc1cc(-c3cc[nH]n3)ccc12
< 4.00

Give recorded pEC50. COCC(=O)NC(C)Cn1cc2c(N)nc3cc(-c4ccn[nH]4)ccc3c2n1 (stereo not shown)
< 4.00

Answer with the recorded pEC50 of COC[C@H](O)Cn1cc2c(N)nc3cc(-c4cc[nH]n4)ccc3c2n1 only.
< 4.00

Read off the recorded pEC50 for Nc1nc2cc(-c3cc[nH]n3)ccc2c2cn(CCNC(=O)c3cc(F)ccn3)nc12
4.00 to 4.70

Consider the compound Nc1nc2cc(-c3cc[nH]n3)ccc2c2c1cnn2C1CCOC1 (stereo not shown) and give its recorded pEC50.
< 4.00

Supply measured pEC50 of CC(Cn1cc2c(N)nc3cc(-c4ccn[nH]4)ccc3c2n1)NC(=O)C(C)(C)C#N (stereo not shown) in your reply.
< 4.00

Check the records and state pEC50 for Nc1nc2cc(-c3cc[nH]n3)ccc2c2nn(CCC(F)F)cc12
< 4.00

Input Nc1nc2cc(-c3ccn[nH]3)ccc2c2cn(CCF)nc12 , output reported pEC50.
4.00 to 4.70

Quote pEC50 reported for Cc1csc(C(=O)NCCn2cc3c(n2)c(N)nc2cc(-c4cc[nH]n4)ccc23)n1 please.
< 4.00

Answer with the recorded pEC50 for the compound listed here: Nc1nc2cc(-c3cc[nH]n3)ccc2c2cn(CCCNC(=O)c3ccccn3)nc12
< 4.00

Annotate the compound CC(C)(N)Cn1cc2c(N)nc3cc(-c4ccn[nH]4)ccc3c2n1 with its measured pEC50.
< 4.00

Answer with the recorded pEC50 of COCCn1nc2c(N)nc3cc(-c4ccn[nH]4)ccc3c2n1 only.
< 4.00

Name the recorded pEC50 of the compound listed here: Nc1nc2cc(-c3cc[nH]n3)ccc2c2cn(CCN3Cc4cc(Cl)ccc4C3=O)nc12
4.00 to 4.70

Identify the reported pEC50 for the following entry. COCCn1cc2c(n1)c(N)nc1cc(-c3ccn[nH]3)ccc12
4.70 to 6.00

// Input: Nc1nc2cc(-c3cc[nH]n3)ccc2c2cn(CCNC(=O)Oc3ccccc3)nc12 . Output its pEC50 only.
< 4.00

Kindly indicate its recorded pEC50. Item: Nc1nc2cc(-c3ccn[nH]3)ccc2c2cn(CCNC(=O)c3ccccn3)cc12
< 4.00

Please list pEC50 recorded for the compound Nc1nc2cc(-c3cc[nH]n3)ccc2c2cn(CCNC(=O)c3cccc(Cl)c3)nc12
< 4.00

Cited source: patent US12037344B2
